Provenance of the data: patent US20180273538A1

- TARGET_SYSTEM: phospho-Ser520-DYRK1A (Homo sapiens)
- Construct: full-length, wild-type human DYRK1A (NM_001396) with an HA tag; expressed in transfected cells; host or cells: human U2-OS osteosarcoma cells, pcDNA3.1 plasmid
- METHOD_NOTES: Cellular DYRK1A autophosphorylation assay in U2-OS cells
- Assay type: cell-based
- CONDITION_INFO: 5 hours exposure, read-out: IC50 (μM) P-Ser520-Dyrk1A-Cell assay
READOUT_TYPE: IC50 (µM)
Reply numerically in µM, unit not repeated.

COc1ccccc1CNc1nc(C)nc2[nH]cc(-c3ccnc(N)c3)c12 [Example 55] ... 0.0058
Cc1nc(-c2ccc3c(c2)CCCC3)c2c(-c3ccnc(N)c3)c[nH]c2n1 [Example 195] ... 0.0071

Challenge: Could you tell me which IC50 is on file for Cc1cc(-c2ccc3c(c2)OCCO3)c2c(-c3ccnc(N)c3)c[nH]c2n1 [Example 217] ?
Response given: 0.0385
